PROCEDURE_DETAILS: A CellTox Green Cytotoxicity Assay to monitor cytotoxicity in HEK293 cells - 8 hour (AID 1224884); further: nearly all actives have a fitted effect of over 35% in size
CONDITION_CONTEXT: CellTox Green fluorescence; series mostly up to 76.8 µM
Records with an inconclusive call do not appear. Activity calls are given as the source filed them. The call rests on the fitted dose curve; in most records, active means well fitted activation curve with a large enough effect in the repeat runs; inconclusive means weak or mixed curves; inactive means flat fitted curve, though single readings scatter.
PARAMETER_MEASURED: outcome

Cc1nnc2n1-c1sc(CCc3ccc(CC(C)C)cc3)cc1C(c1ccccc1Cl)=NC2C (stereo not drawn) :: inactive
Oc1c(I)cc(I)cc1I :: inactive
CC1COC(Cn2cncn2)(c2ccc(Oc3ccc(Cl)cc3)cc2Cl)O1 (stereo not drawn) :: inactive

* * *

PROCEDURE_DETAILS: qHTS assay for identifying genotoxic compounds that show differential cytotoxicity against isogenic chicken DT40 cell lines with known DNA damage response pathways - Rad54/Ku70 mutant cell line (AID 743015); further: nearly all actives have a fitted effect of over 60% in size; further: potency means the concentration at half of the fitted maximal effect
CONDITION_CONTEXT: DT40 Rad54/Ku70 mutant viability, CellTiter-Glo, 40 h; series mostly up to 66.8 µM
Results filed as inconclusive are left out. Active and inactive are the calls of the source. The call rests on the fitted dose curve; in most records, active means well fitted cell-killing curve with a large enough effect in the repeat runs; inconclusive means weak or mixed curves; inactive means no such curve, though single readings can be large or run the other way.
PARAMETER_MEASURED: Potency

Reference set, count: 8
CC(N)Cc1ccc2c(c1)OCO2 (centres undefined) :: inactive
c1ccc2c(c1)Sc1ccccc1N2CC1CN2CCC1CC2 (centres undefined) :: 8.41 µM (active)
C[C@@H]1[C@@H]2Cc3ccc(O)cc3[C@@]1(C)CCN2CCc1ccccc1 :: 7.6 µM (active)
CCCCCCC(=O)O[C@H]1CC[C@H]2[C@@H]3CC[C@H]4CC(=O)C=C(C)[C@]4(C)[C@H]3CC[C@]12C :: inactive
C[C@@H]1[C@@H]2Cc3ccc(O)cc3[C@@]1(C)CCN2CC1CC1 :: inactive
C[C@]12CC[C@H]3[C@@H](CCC4=C(O)C(=O)CC[C@@H]43)[C@@H]1CC[C@@H]2OC(=O)CCC1CCCC1 :: inactive
c1ccc(C2(c3ccccc3)CC2C2=NCCN2)cc1 (centres undefined) :: inactive
CCCC(C)C1(CC)C(=O)NC(=O)NC1=O (centres undefined) :: inactive

Turning to the following compound.
(Q) Fill in: Potency of C1CN(P2(N3CC3)=NP(N3CC3)(N3CC3)=NP(N3CC3)(N3CC3)=N2)CCO1 (centres undefined) is ___
(A) 8.41 µM (active)

* * *

PROCEDURE_DETAILS: qHTS assay to identify small molecule antagonists of the estrogen related receptor (ERR) signaling pathway - cell viability counter screen (AID 1224818);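 further: viability measured after 17.5 h of compound exposure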
CONDITION_CONTEXT: ERR reporter cell line viability counter screen; series mostly up to 46.1 µM
Results filed as inconclusive are left out. Activity calls are given as the source filed them. The call rests on the fitted dose curve; in most records, active means well fitted cell-killing curve with a large enough effect in the repeat runs; inconclusive means weak or mixed curves; inactive means flat fitted curve, though single readings scatter.
Please reply with one of these outcomes: active, inactive

C=CCN1CCC23c4c5ccc(O)c4O[C@H]2C(=O)CC[C@@]3(O)C1C5 (some centres not stated) :: inactive
CN(N=O)c1ccc(O)c(O)c1 :: inactive
Clc1ccc(N2CC3CCC(C2)N3)nn1 :: inactive
CC(=O)NBr :: inactive
CN(C(=O)Cc1ccc(Cl)c(Cl)c1)C(CN1CCCC1)c1cccc(OCC(=O)O)c1 (configuration not stated) :: inactive

(Q) Test call, this molecule: `O=c1ccc2[nH]cc(C3=CCNCC3)c2[nH]1`
(A) inactive

(Q) State the result this test recorded for C[N+]1(C)C2CCC1CC(OC(=O)c1c[nH]c3ccccc13)C2 (configuration not stated) .
(A) inactive

(Q) State the result this test recorded for `c1ccc2c(N3CCNCC3)cccc2c1` .
(A) inactive

(Q) Outcome? `COc1ccc2c(c[n+](C)c3c4cc5c(cc4ccc23)OCO5)c1OC`
(A) active

* * *

ASSAYED_SYSTEM: Acetylcholinesterase (Homo sapiens) (UniProt P22303)
Sequence (P22303 whole entry, looked up): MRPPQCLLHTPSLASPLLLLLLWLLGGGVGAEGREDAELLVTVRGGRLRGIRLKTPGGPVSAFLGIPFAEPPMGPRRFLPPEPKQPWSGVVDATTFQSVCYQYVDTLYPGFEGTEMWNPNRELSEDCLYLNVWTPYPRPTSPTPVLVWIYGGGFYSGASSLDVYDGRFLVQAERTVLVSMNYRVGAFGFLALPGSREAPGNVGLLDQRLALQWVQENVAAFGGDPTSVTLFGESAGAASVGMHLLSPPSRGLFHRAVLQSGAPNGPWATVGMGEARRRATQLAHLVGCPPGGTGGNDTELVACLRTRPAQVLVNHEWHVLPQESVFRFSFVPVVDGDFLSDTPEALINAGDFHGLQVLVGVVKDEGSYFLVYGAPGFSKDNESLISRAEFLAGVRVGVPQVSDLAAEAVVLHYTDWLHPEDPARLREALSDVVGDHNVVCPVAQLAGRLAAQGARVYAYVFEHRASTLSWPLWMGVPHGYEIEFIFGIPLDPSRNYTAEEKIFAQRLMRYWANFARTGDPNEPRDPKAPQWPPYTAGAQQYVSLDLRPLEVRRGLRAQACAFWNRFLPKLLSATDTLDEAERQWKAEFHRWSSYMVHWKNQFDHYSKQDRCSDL
PROCEDURE_DETAILS: Acetylcholinesterase (AChE) small molecule antagonists: enzyme-based qHTS assay (AID 1347397); further: nearly all actives have a fitted effect of over 55% in size
CONDITION_CONTEXT: AChE enzyme activity inhibition; series mostly up to 115 µM
Activity calls are given as the source filed them. The call rests on the fitted dose curve.
Would you mind answering with one of these outcomes? active, inactive

Look over these answered cases.
c1ccc(OCCOc2ccccc2)cc1 :: inactive
CCCCCCCCCCCC(=O)Cl :: inactive

(Q) Assay result, entry `CC(=O)c1ccc2ccc3ccccc3c2c1` — outcome?
(A) inactive

(Q) For `CCN(CCO)c1cccc(C)c1` , what call appears in the results of this test?
(A) inactive

(Q) What outcome does the record of this test show for `CN1CCN(C2=Nc3cc(F)ccc3Cc3ccccc32)CC1` ?
(A) inactive

(Q) Look up the recorded call for `C[C@]12CC[C@@H]3c4ccc(O)cc4CC[C@H]3[C@@H]1CC[C@H]2O` in this test.
(A) inactive

(Q) Look up the recorded call for `CCCCN(CCCC)C(=S)SSC(=S)N(CCCC)CCCC` in this test.
(A) inactive

* * *

ASSAYED_SYSTEM: Acetylcholinesterase (Homo sapiens)
PROCEDURE_DETAILS: Acetylcholinesterase (AChE) small molecule antagonists: colormetric cell-based qHTS assay (AID 1347395); further: nearly all actives have a fitted effect of over 30% in size
CONDITION_CONTEXT: SH-SY5Y cells AChE activity, colorimetric (Ellman); series mostly up to 115 µM
Results filed as inconclusive are left out. The source made the active and inactive calls. Calls follow the shape of the full dose curve.
PARAMETER_MEASURED: activity, negative = inhibition

Example cases with answers are listed next.
CNC1(C)C2CCC(C2)C1(C)C (stereo not given) :: inactive
C[Si](NC1CCCCC1)(NC1CCCCC1)NC1CCCCC1 :: inactive
CC(C)=CC1CC(C)CCO1 (stereo not given) :: inactive
O=C(O)Cn1cnnn1 :: inactive
CCCCCCCCCC :: inactive

// input: 2 compounds below; output: activity, negative = inhibition for each
1. CC1COC(=O)O1 (stereo not given)
2. O=P(OC(CCl)CCl)(OC(CCl)CCl)OC(CCl)CCl

(A)
1. inactive
2. inactive

Quick request: activity, negative = inhibition for each listed item, please.
1. Cc1ccc2ncccc2c1
2. [O-][N+](=Nc1ccccc1)c1ccccc1
3. Cc1cccc(C)c1NC(=O)CN1CCN(CCCC(c2ccc(F)cc2)c2ccc(F)cc2)CC1

(A)
1: inactive; 2: inactive; 3: inactive

* * *

ASSAYED_SYSTEM: Androgen receptor (Homo sapiens) (UniProt P10275)
Sequence (P10275 whole entry, looked up): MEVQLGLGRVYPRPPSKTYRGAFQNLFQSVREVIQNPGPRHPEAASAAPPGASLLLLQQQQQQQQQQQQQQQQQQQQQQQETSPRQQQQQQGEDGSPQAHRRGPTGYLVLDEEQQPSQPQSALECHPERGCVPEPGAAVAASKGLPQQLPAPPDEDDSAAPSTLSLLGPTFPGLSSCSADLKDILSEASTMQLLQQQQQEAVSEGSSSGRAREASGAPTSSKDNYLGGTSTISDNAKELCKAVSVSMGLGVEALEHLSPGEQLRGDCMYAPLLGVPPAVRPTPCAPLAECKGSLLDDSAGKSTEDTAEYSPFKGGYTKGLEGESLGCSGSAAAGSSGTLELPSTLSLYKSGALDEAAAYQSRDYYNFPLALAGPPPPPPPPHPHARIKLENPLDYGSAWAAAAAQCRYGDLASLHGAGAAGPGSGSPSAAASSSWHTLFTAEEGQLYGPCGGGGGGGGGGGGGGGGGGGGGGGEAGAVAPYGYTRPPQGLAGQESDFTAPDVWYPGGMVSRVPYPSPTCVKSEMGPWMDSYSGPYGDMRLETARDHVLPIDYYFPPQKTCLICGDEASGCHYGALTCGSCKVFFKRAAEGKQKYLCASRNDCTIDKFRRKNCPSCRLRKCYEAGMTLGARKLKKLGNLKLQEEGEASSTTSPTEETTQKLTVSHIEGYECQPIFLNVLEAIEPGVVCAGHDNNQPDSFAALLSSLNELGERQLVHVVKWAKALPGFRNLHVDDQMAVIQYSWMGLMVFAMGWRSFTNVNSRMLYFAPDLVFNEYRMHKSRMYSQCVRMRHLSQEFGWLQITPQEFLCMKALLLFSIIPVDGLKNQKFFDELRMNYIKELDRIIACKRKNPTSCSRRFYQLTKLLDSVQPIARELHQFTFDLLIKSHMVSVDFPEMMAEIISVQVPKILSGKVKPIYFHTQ
PROCEDURE_DETAILS: qHTS assay to identify small molecule agonists of the androgen receptor (AR) signaling pathway using the MDA cell line (AID 743040; further: nearly all actives have a fitted effect of over 20% in size)
CONDITION_CONTEXT: MDA-kb2 AR-luc cells, MMTV luciferase, 16 h; series mostly up to 70.3 µM
The source made the active and inactive calls. Calls come from the whole dose curve; as a rule, active = well fitted activation curve with a large enough effect in the repeat runs; inconclusive = weak or mixed curves; inactive = flat fitted curve, though single readings scatter.
Permitted responses: true for active, false for inactive

Clc1ccc2c(c1)C(c1ccccc1)=NCc1nncn1-2 :: false
CCCCCc1cc(O)c2c(c1)OC(C)(C)[C@@H]1CCC(C)=C[C@@H]21 :: false
C[N+]1(C)[C@@H]2CC[C@H]1CC(OC(=O)c1c[nH]c3ccccc13)C2 (stereo not given in full) :: false
C=CCN1CC[C@]23c4c5ccc(O)c4O[C@H]2[C@@H](O)C=C[C@H]3[C@H]1C5 :: false

Now consider the entry below.
(Q) Please state the recorded outcome for this molecule: CCCC(=O)OC(C(Cl)(Cl)Cl)P(=O)(OC)OC (stereo not given)
(A) true

* * *

ASSAYED_SYSTEM: Acetylcholinesterase (Homo sapiens) (UniProt P22303)
PROCEDURE_DETAILS: Acetylcholinesterase (AChE) small molecule antagonists: fluorescence cell-based qHTS assay (AID 1347398); further: nearly all actives have a fitted effect of over 50% in size
CONDITION_CONTEXT: SH-SY5Y cells; AChE activity; series mostly up to 115 µM
Records with an inconclusive call do not appear. Active and inactive are the calls of the source. Calls follow the shape of the full dose curve.
PARAMETER_MEASURED: outcome

C[C@H]1C[C@@H]2[C@H]([C@@H](O)C[C@@]3(C)[C@H]2CC[C@]3(O)C(=O)CO)[C@@]2(C)C=CC(=O)C=C12 :: inactive
C=CC(=O)NC(C)C :: inactive
CC(C)C(C)(C)C(C)(C)C(C)(C)S :: inactive
Oc1ccc(Cl)c2cccnc12 :: inactive
CN(C)CCOC(c1ccccc1)c1ccc(Br)cc1 (stereo unspecified) :: inactive

Look up outcome for the entries below, preserving their order.
1. O=C1CN(/N=C/c2ccc([N+](=O)[O-])o2)C(=O)N1
2. COC(=O)C1=C(C)NC(C)=C(C(=O)OCC(C)C)C1c1ccccc1[N+](=O)[O-] (stereo unspecified)
3. CCN(CC)CC1CCCCN1CC(=O)N1c2ccccc2C(=O)Nc2cccnc21 (stereo unspecified)
4. Cc1ccc(O)c(-n2nc3ccccc3n2)c1

(A)
inactive
inactive
inactive
inactive

For each listed entry, give its outcome.
1. C[C@H]1C[C@H]2[C@@H]3CCC4=CC(=O)C=C[C@]4(C)[C@H]3C(=O)C[C@]2(C)[C@@]1(O)C(=O)CO
2. CCCCC(CC)C(=O)OCCOCCOCCOCCOC(=O)C(CC)CCCC (stereo unspecified)

(A)
1: inactive; 2: inactive

* * *

PROCEDURE_DETAILS: qHTS assay for small molecules that induce genotoxicity in human embryonic kidney cells expressing luciferase-tagged ATAD5 (AID 651632); further: nearly all actives have a fitted effect of over 15% in size
CONDITION_CONTEXT: HEK293T ATAD5-luciferase induction, 16 h; series mostly up to 83.3 µM
Results filed as inconclusive are left out. Activity calls are given as the source filed them. The call rests on the fitted dose curve; in most records, active means well fitted activation curve with a large enough effect in the repeat runs; inconclusive means weak or mixed curves; inactive means no such curve, though single readings can be large or run the other way.
The reply should name one outcome from y (active), n (inactive)

Some entries whose results are on file:
CCCC(=O)OC(C(Cl)(Cl)Cl)P(=O)(OC)OC (stereo not drawn) :: n
CC(=O)OC1CN2CCC1CC2 (stereo not drawn) :: n
O=c1[nH]cc(N(CCCl)CCCl)c(=O)[nH]1 :: n
Cc1nnc2n1-c1ccc(Cl)cc1C(c1ccccc1)=NC2 :: y
C[C@@H]1[C@@H]2Cc3ccc(O)cc3[C@@]1(C)CCN2CC1CC1 :: n

(Q) What did the test return for C=CCC1(C(C)CCC)C(=O)N=C(S)NC1=O (stereo not drawn) ?
(A) n

(Q) Just curious, what result did `CC(=O)O[C@H]1C[C@H](O[C@H]2[C@@H](O)C[C@H](O[C@H]3[C@@H](O)C[C@H](O[C@H]4CC[C@@]5(C)[C@H](CC[C@@H]6[C@@H]5C[C@@H](O)[C@]5(C)[C@@H](C7=CC(=O)OC7)CC[C@]65O)C4)O[C@@H]3C)O[C@@H]2C)O[C@H](C)[C@H]1O[C@@H]1O[C@H](CO)[C@@H](O)[C@H](O)[C@H]1O` get here?
(A) n

(Q) Please share the test call associated with `C[C@]12CC[C@H]3[C@@H](CCC4=C(O)C(=O)CC[C@@H]43)[C@@H]1CC[C@@H]2OC(=O)CCC1CCCC1` .
(A) n
